Each entry below lists one item and its recorded IC50 value.
ASSAY TARGET: AHAS D376E-W574L (Arabidopsis thaliana, UniProt P17597, D376E/E575Q/W574L)
Sequence (P17597 56-670 D376E/W574L/E575Q): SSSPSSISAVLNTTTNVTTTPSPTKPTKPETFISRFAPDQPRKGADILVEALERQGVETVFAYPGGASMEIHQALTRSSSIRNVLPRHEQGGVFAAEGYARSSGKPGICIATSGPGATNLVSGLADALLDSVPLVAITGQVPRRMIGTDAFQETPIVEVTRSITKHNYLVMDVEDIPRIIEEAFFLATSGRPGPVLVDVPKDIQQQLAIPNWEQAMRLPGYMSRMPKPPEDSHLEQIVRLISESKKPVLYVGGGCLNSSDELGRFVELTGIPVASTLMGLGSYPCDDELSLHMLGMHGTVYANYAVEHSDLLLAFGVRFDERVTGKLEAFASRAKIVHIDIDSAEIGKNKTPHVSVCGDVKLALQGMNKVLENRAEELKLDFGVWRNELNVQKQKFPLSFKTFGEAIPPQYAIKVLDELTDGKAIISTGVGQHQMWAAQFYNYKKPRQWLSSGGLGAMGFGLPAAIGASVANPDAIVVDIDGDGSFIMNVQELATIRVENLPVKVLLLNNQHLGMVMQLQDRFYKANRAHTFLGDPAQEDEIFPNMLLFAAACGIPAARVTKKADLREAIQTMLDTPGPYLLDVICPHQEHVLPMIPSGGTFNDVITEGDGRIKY
MEASUREMENT NOTES: biochemical

COMPOUND: COC(=O)c1sccc1S(=O)(=O)NC(=O)Nc1nc(C)nc(OC)n1
IC50: > 100 µM
--
COMPOUND: COCc1cnc(C2=NC(C)(C(C)C)C(=O)N2)c(C(=O)O)c1 (stereo not drawn)
IC50: > 100 µM
--
COMPOUND: COc1cc(OC)nc(NC(=O)NS(=O)(=O)N(C)S(C)(=O)=O)n1
IC50: > 100 µM

###

Each entry below lists one item and its recorded Resistance Factor value.
ASSAY TARGET: AHAS D376E-W574L (Arabidopsis thaliana, UniProt P17597, D376E/E575Q/W574L)
MEASUREMENT NOTES: biochemical
PARTICULARS: AHAS D376E-W574L
MEASUREMENT TYPE: Resistance Factor

COMPOUND: CCCOc1nn(C(=O)[N-]S(=O)(=O)c2ccccc2C(=O)OC)c(=O)n1C.[Na+] [Propoxycarbazone]
ASSAY TARGET: AHAS D376E-W574L (Arabidopsis thaliana, UniProt P17597, D376E/E575Q/W574L)
VALUE OBSERVED: >4641

COMPOUND: COc1cc(OC)nc(NC(=O)NS(=O)(=O)c2ncccc2C(=O)N(C)C)n1 [Nicosulfuron, nicosulfuron]
ASSAY TARGET: AHAS D376E-W574L (Arabidopsis thaliana, UniProt P17597, D376E/E575Q/W574L)
VALUE OBSERVED: >607

COMPOUND: COc1cc(OC)nc(NC(=O)NS(=O)(=O)c2ncccc2C(F)(F)F)n1 [Flazasulfuron, flazasulfuron]
ASSAY TARGET: AHAS D376E-W574L (Arabidopsis thaliana, UniProt P17597, D376E/E575Q/W574L)
VALUE OBSERVED: >120226

COMPOUND: COc1cc(OC)nc(Oc2cccc(Oc3nc(OC)cc(OC)n3)c2C(=O)O)n1 [Bispyribac-sodium, bispyribac-sodium]
ASSAY TARGET: AHAS D376E-W574L (Arabidopsis thaliana, UniProt P17597, D376E/E575Q/W574L)
VALUE OBSERVED: >5623

###

System: oilseed rape homozygous for HETO139 and HETO134 (139-134)
MEASUREMENT NOTES: Field herbicide tolerance, visible phytotoxicity (ALS I W574L, ALS III P197S-D376E)
Format: in vivo, Brassica napus
PARTICULARS: 16 DAA, gai/ha: imazamox 40, bispyribac-sodium 50, propoxycarbazone-sodium 70, mesosulfuron-methyl 60, pyroxsulam 12.5 + cloquintocet-mexyl 37.5, each + rapeseed oil methylated 366.5

MOLECULE: COCc1cnc(C2=NC(C)(C(C)C)C(=O)N2)c(C(=O)O)c1 (centres unmarked)
Percentage phytotoxicity (%): 13.3
--
MOLECULE: COc1cc(OC)n2nc(NS(=O)(=O)c3c(C(F)(F)F)ccnc3OC)nc2n1
Percentage phytotoxicity (%): 16
--
MOLECULE: CCCOc1nn(C(=O)[N-]S(=O)(=O)c2ccccc2C(=O)OC)c(=O)n1C.[Na+] [PROPOXYCARBAZONE-SODIUM, propoxycarbazone-sodium]
Percentage phytotoxicity (%): 20
--
MOLECULE: COC(=O)c1ccc(CNS(C)(=O)=O)cc1S(=O)(=O)NC(=O)Nc1nc(OC)cc(OC)n1
Percentage phytotoxicity (%): 13.3
--
MOLECULE: COc1cc(OC)nc(Oc2cccc(Oc3nc(OC)cc(OC)n3)c2C(=O)O)n1 [Bispyribac-sodium, bispyribac-sodium]
Percentage phytotoxicity (%): 65

###

ASSAY TARGET: AHAS P197S-W574L (Arabidopsis thaliana, UniProt P17597, E575Q/P197S/W574L)
Sequence (P17597 56-670 P197S/W574L/E575Q): as the sequence (P17597 56-670 D376E/W574L/E575Q) above, with P142S, E321D counted along it
MEASUREMENT NOTES: biochemical
PARTICULARS: AHAS P197S-W574L
Each entry below lists one item and its recorded Resistance Factor value.

MOLECULE: COC(=O)c1ccc(I)cc1S(=O)(=O)[N-]C(=O)Nc1nc(C)nc(OC)n1.[Na+] [Iodosulfuron-methy-sodium, iodosulfuron-methyl-sodium]
Resistance Factor: >35030
--
MOLECULE: COC(=O)c1sccc1S(=O)(=O)NC(=O)Nc1nc(C)nc(OC)n1
Resistance Factor: >2511
--
MOLECULE: COc1ncc(F)c2nc(S(=O)(=O)Nc3c(F)cccc3F)nn12
Resistance Factor: >6918
--
MOLECULE: COCc1cnc(C2=NC(C)(C(C)C)C(=O)N2)c(C(=O)O)c1 (centres unmarked)
Resistance Factor: >22
--
MOLECULE: COc1cc(OC)nc(Oc2cccc(Oc3nc(OC)cc(OC)n3)c2C(=O)O)n1 [Bispyribac-sodium, bispyribac-sodium]
Resistance Factor: >5623
--
MOLECULE: COc1cc(OC)n2nc(S(=O)(=O)Nc3c(Cl)ccc(C)c3Cl)nc2n1
Resistance Factor: >28840
--
MOLECULE: CCS(=O)(=O)c1nc2ccccn2c1S(=O)(=O)NC(=O)Nc1nc(OC)cc(OC)n1
Resistance Factor: >4641
--
MOLECULE: COC(=O)c1ccccc1S(=O)(=O)NC(=O)Nc1nc(C)nc(OC)n1
Resistance Factor: >7547
--
MOLECULE: COC(=O)c1csc(C)c1S(=O)(=O)NC(=O)n1nc(OC)n(C)c1=O
Resistance Factor: >7399
--
MOLECULE: COC(=O)c1ccc(CNS(C)(=O)=O)cc1S(=O)(=O)NC(=O)Nc1nc(OC)cc(OC)n1
Resistance Factor: >64730
--
MOLECULE: COc1cc(OC)nc(NC(=O)NS(=O)(=O)c2ncccc2C(=O)N(C)C)n1
Resistance Factor: >607
--
MOLECULE: COc1cc(OC)nc(NC(=O)NS(=O)(=O)c2cc(NC=O)ccc2C(=O)N(C)C)n1
Resistance Factor: >11748
--
MOLECULE: COC(=O)c1ccc(C(F)(F)F)nc1S(=O)(=O)NC(=O)Nc1nc(OC)cc(OC)n1
Resistance Factor: >47863
--
MOLECULE: COc1cc(OC)nc(NC(=O)NS(=O)(=O)N(C)S(C)(=O)=O)n1
Resistance Factor: >488

###

ASSAY TARGET: AHAS P197S-W574L (Arabidopsis thaliana, UniProt P17597, E575Q/P197S/W574L)
MEASUREMENT NOTES: biochemical
PARTICULARS: AHAS P197S-W574L
Each entry below lists one item and its recorded Resistance Factor value.

COMPOUND: CCS(=O)(=O)c1cccnc1S(=O)(=O)NC(=O)Nc1nc(OC)cc(OC)n1 [Rimsulfuron, rimsulfuron]
Resistance Factor: >4466
//
COMPOUND: COc1cc(OC)n2nc(NS(=O)(=O)c3c(C(F)(F)F)ccnc3OC)nc2n1 [Pyroxsulam, pyroxsulam]
Resistance Factor: >41368
//
COMPOUND: CCCOc1nn(C(=O)[N-]S(=O)(=O)c2ccccc2C(=O)OC)c(=O)n1C.[Na+] [Propoxycarbazone]
Resistance Factor: >4641
//
COMPOUND: COc1cc(OC)nc(NC(=O)NS(=O)(=O)c2ncccc2C(F)(F)F)n1 [Flazasulfuron, flazasulfuron]
Resistance Factor: >120226

###

ASSAY TARGET: AHAS W574L (Arabidopsis thaliana, UniProt P17597, E575Q/W574L)
Sequence (P17597 56-670 W574L/E575Q): as the sequence (P17597 56-670 D376E/W574L/E575Q) above, with E321D counted along it
Type: biochemical
MEASUREMENT TYPE: Resistance Factor

MOLECULE: COc1cc(OC)nc(NC(=O)NS(=O)(=O)c2ncccc2C(F)(F)F)n1
MEASUREMENT TYPE: Resistance Factor
COMPARISON SYMBOL: =
VALUE OBSERVED: 3802
//
MOLECULE: COc1cc(OC)nc(NC(=O)NS(=O)(=O)c2cc(NC=O)ccc2C(=O)N(C)C)n1
MEASUREMENT TYPE: Resistance Factor
COMPARISON SYMBOL: =
VALUE OBSERVED: 5888
//
MOLECULE: COc1cc(OC)nc(Oc2cccc(Oc3nc(OC)cc(OC)n3)c2C(=O)O)n1 [Bispyribac-sodium, bispyribac-sodium]
MEASUREMENT TYPE: Resistance Factor
COMPARISON SYMBOL: =
VALUE OBSERVED: 447
//
MOLECULE: COC(=O)c1sccc1S(=O)(=O)NC(=O)Nc1nc(C)nc(OC)n1
MEASUREMENT TYPE: Resistance Factor
COMPARISON SYMBOL: =
VALUE OBSERVED: 1585
//
MOLECULE: COC(=O)c1ccc(I)cc1S(=O)(=O)[N-]C(=O)Nc1nc(C)nc(OC)n1.[Na+] [Iodosulfuron-methy-sodium, iodosulfuron-methyl-sodium]
MEASUREMENT TYPE: Resistance Factor
COMPARISON SYMBOL: =
VALUE OBSERVED: 555
//
MOLECULE: COCc1cnc(C2=NC(C)(C(C)C)C(=O)N2)c(C(=O)O)c1 (stereo not shown)
MEASUREMENT TYPE: Resistance Factor
COMPARISON SYMBOL: >
VALUE OBSERVED: 22
//
MOLECULE: COc1ncc(F)c2nc(S(=O)(=O)Nc3c(F)cccc3F)nn12
MEASUREMENT TYPE: Resistance Factor
COMPARISON SYMBOL: =
VALUE OBSERVED: 1738
